From: the Immune Epitope Database (IEDB)

biological target: HLA-A*02:01; experiment: IEDB peptide-MHC binding, purified MHC/competitive/radioactivity; filed as Kd, often an IC50 or EC50 that approximates it; bounds were set here for any values at or beyond the usual limits of such assays; details: source organism: Dengue virus 3 China/80-2/1980
pKd: −log10 of the molar value.

{"columns": ["primary-sequence", "pKd"],
 "data": [
  ["LLLGLMILL", 7.87]
]}

----------
target: HLA-A*26:01; assay: IEDB peptide-MHC binding, purified MHC/competitive/radioactivity; filed as Kd, often an IC50 or EC50 that approximates it; bounds were set here for any values at or beyond the usual limits of such assays; conditions: source organism: Mammarenavirus brazilense
pKd: −log10 of the molar value.
The entries below come with measured pKd values attached.
property-measured: pKd

{"columns": ["primary-sequence", "property-measured", "result"],
 "data": [
  ["VDICFWSTL", "pKd", "≤ 4.11"],
  ["KVNACHHNY", "pKd", "≤ 4.11"]
]}

----------
biological target: HLA-A*26:01; experiment: IEDB peptide-MHC binding, purified MHC/direct/fluorescence; filed as Kd, often an IC50 or EC50 that approximates it; bounds were set here for any values at or beyond the usual limits of such assays; conditions: source organism: Cryptosporidium parvum Iowa II
pKd: −log10 of the molar value.

{"columns": ["primary-sequence", "pKd"],
 "data": [
  ["KQMSQPYAV", "≤ 4.70"]
]}

----------
target: HLA-A*32:15; experiment: IEDB peptide-MHC binding, purified MHC/competitive/fluorescence; filed as Kd, often an IC50 or EC50 that approximates it; bounds were set here for any values at or beyond the usual limits of such assays; conditions: source organism: dengue virus type 4
property-measured: Kd (nM)

{"columns": ["primary-sequence", "number"],
 "data": [
  ["STMPLVMAW", 22.7]
]}

----------
target: HLA-A*02:01; assay: IEDB peptide-MHC binding, purified MHC/direct/fluorescence; filed as Kd, often an IC50 or EC50 that approximates it; bounds were set here for any values at or beyond the usual limits of such assays; conditions: source organism: Vibrio parahaemolyticus
The entries below come with measured Kd values attached.
property-measured: Kd

{"columns": ["primary-sequence", "result"],
 "data": [
  ["MSSAMSMMH", "≥ 20 µM"],
  ["NSSYWRQGY", "≥ 20 µM"]
]}

----------
target: HLA-B*18:01; experiment: IEDB peptide-MHC binding, purified MHC/competitive/radioactivity; filed as Kd, often an IC50 or EC50 that approximates it; bounds were set here for any values at or beyond the usual limits of such assays; settings: source organism: Mammarenavirus choriomeningitidis
property-measured: Kd (nM)

{"columns": ["primary-sequence", "measurement-unit", "number"],
 "data": [
  ["NDSILSHNF", "nM", 423]
]}

----------
target: HLA-A*29:02; assay: IEDB peptide-MHC binding, purified MHC/direct/fluorescence; filed as Kd, often an IC50 or EC50 that approximates it; bounds were set here for any values at or beyond the usual limits of such assays; conditions: source organism: Mammarenavirus lassaense
pKd: −log10 of the molar value.
property-measured: pKd

{"columns": ["primary-sequence", "property-measured", "result"],
 "data": [
  ["KHDEEFCDM", "pKd", "≤ 4.70"]
]}

----------
target: HLA-A*02:03; test: IEDB peptide-MHC binding, purified MHC/competitive/fluorescence; filed as Kd, often an IC50 or EC50 that approximates it; bounds were set here for any values at or beyond the usual limits of such assays; settings: source organism: Vibrio cholerae O395
pKd: −log10 of the molar value.
property-measured: pKd

{"columns": ["primary-sequence", "target-entity", "result"],
 "data": [
  ["RVHFHRFMY", "HLA-A*02:03", "≤ 4.70"]
]}

----------
target: HLA-A*11:01; test: IEDB peptide-MHC binding, purified MHC/competitive/radioactivity; filed as Kd, often an IC50 or EC50 that approximates it; bounds were set here for any values at or beyond the usual limits of such assays; details: source organism: Mammarenavirus machupoense
property-measured: Kd (µM)

{"columns": ["primary-sequence", "target-entity", "qualifier-operator", "number"],
 "data": [
  ["SSFDYCGVNH", "HLA-A*11:01", "=", 4.84],
  ["TCNDHYLCLR", "HLA-A*11:01", "≥", 61.8]
]}

----------
target: HLA-B*54:01; experiment: IEDB peptide-MHC binding, purified MHC/competitive/radioactivity; filed as Kd, often an IC50 or EC50 that approximates it; bounds were set here for any values at or beyond the usual limits of such assays; settings: source organism: Vaccinia virus Copenhagen
pKd: −log10 of the molar value.

{"columns": ["primary-sequence", "pKd"],
 "data": [
  ["LILSCIFAFI", 5.82]
]}

----------
molecular target: HLA-A*02:16; experiment: IEDB peptide-MHC binding, purified MHC/competitive/fluorescence; filed as Kd, often an IC50 or EC50 that approximates it; bounds were set here for any values at or beyond the usual limits of such assays; details: source organism: Cryptosporidium parvum Iowa II

{"columns": ["primary-sequence", "Kd"],
 "data": [
  ["VYWENEVSI", "≥ 20 µM"]
]}

----------
target: HLA-B*27:05; assay: IEDB peptide-MHC binding, purified MHC/direct/fluorescence; filed as Kd, often an IC50 or EC50 that approximates it; bounds were set here for any values at or beyond the usual limits of such assays; conditions: source organism: Influenza A virus (A/camel/Mongolia/1982(H1N1))

{"columns": ["primary-sequence", "Kd"],
 "data": [
  ["ELDEIGEDV", "≥ 20 µM"]
]}

----------
target: HLA-B*18:01; assay: IEDB peptide-MHC binding, purified MHC/competitive/fluorescence; filed as Kd, often an IC50 or EC50 that approximates it; bounds were set here for any values at or beyond the usual limits of such assays; conditions: source organism: Shigella dysenteriae Sd197
pKd: −log10 of the molar value.

{"columns": ["primary-sequence", "target-entity", "pKd"],
 "data": [
  ["IEDDEIIWV", "HLA-B*18:01", "≤ 4.70"]
]}

----------
biological target: HLA-B*07:02; test: IEDB peptide-MHC binding, purified MHC/direct/fluorescence; filed as Kd, often an IC50 or EC50 that approximates it; bounds were set here for any values at or beyond the usual limits of such assays; conditions: source organism: Homo sapiens
pKd: −log10 of the molar value.
property-measured: pKd

{"columns": ["primary-sequence", "property-measured", "number"],
 "data": [
  ["APRALLLLL", "pKd", 5.68],
  ["DPSGAYFAW", "pKd", 4.75]
]}

----------
target: HLA-A*23:01; experiment: IEDB peptide-MHC binding, purified MHC/competitive/radioactivity; filed as Kd, often an IC50 or EC50 that approximates it; bounds were set here for any values at or beyond the usual limits of such assays; conditions: source organism: Dengue virus 1 Singapore/S275/1990
property-measured: Kd

{"columns": ["primary-sequence", "target-entity", "result"],
 "data": [
  ["LWATLLSLTF", "HLA-A*23:01", "25.3 nM"]
]}

----------
biological target: HLA-A*02:19; test: IEDB peptide-MHC binding, purified MHC/competitive/fluorescence; filed as Kd, often an IC50 or EC50 that approximates it; bounds were set here for any values at or beyond the usual limits of such assays; conditions: source organism: Yersinia mollaretii ATCC 43969
pKd: −log10 of the molar value.

{"columns": ["primary-sequence", "pKd"],
 "data": [
  ["MMWIPGWFG", "≤ 4.70"]
]}

----------
target: HLA-A*31:01; assay: IEDB peptide-MHC binding, purified MHC/competitive/fluorescence; filed as Kd, often an IC50 or EC50 that approximates it; bounds were set here for any values at or beyond the usual limits of such assays; details: source organism: Mycobacterium tuberculosis C
property-measured: Kd (nM)

{"columns": ["primary-sequence", "number"],
 "data": [
  ["RVIPPSLLR", 13.5]
]}

----------
molecular target: HLA-A*11:01; assay: IEDB peptide-MHC binding, purified MHC/direct/fluorescence; filed as Kd, often an IC50 or EC50 that approximates it; bounds were set here for any values at or beyond the usual limits of such assays; conditions: source organism: Mycobacterium tuberculosis
The entries below come with measured Kd values attached.
property-measured: Kd

{"columns": ["primary-sequence", "target-entity", "property-measured", "result"],
 "data": [
  ["AVFPRYHPR", "HLA-A*11:01", "Kd", "38 nM"],
  ["AAMVLLLRK", "HLA-A*11:01", "Kd", "≤ 1 nM"]
]}

----------
biological target: HLA-B*15:02; assay: IEDB peptide-MHC binding, purified MHC/competitive/fluorescence; filed as Kd, often an IC50 or EC50 that approximates it; bounds were set here for any values at or beyond the usual limits of such assays; conditions: source organism: Encephalitozoon cuniculi GB-M1
property-measured: Kd (µM)

{"columns": ["primary-sequence", "number"],
 "data": [
  ["ILKEYPQVY", 0.155]
]}
